ASSAY_TARGET: CYP3A4 (Homo sapiens)
Sequence (P08684 whole entry): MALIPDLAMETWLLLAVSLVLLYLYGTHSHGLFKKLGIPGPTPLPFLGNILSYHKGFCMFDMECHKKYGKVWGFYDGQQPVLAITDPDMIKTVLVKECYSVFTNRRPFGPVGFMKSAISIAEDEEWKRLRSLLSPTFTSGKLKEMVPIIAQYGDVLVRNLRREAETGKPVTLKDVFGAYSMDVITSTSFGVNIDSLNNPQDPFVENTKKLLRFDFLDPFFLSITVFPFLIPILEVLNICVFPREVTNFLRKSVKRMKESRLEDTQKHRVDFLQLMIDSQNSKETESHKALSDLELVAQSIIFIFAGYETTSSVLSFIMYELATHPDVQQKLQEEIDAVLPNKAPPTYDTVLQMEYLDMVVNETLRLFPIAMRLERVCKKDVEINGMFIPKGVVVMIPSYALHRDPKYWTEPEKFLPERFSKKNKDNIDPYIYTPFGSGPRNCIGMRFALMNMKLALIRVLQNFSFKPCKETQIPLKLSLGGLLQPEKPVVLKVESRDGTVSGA
PROTOCOL_DESCRIPTION: Determination of IC50 against CYP3A4 by measurement of inhibition of testosterone metabolism (human liver microsomes, 6-β-OH-testosterone by LC-MS/MS)
Type: biochemical
Design: 0.1 mg/mL human liver microsomes
CONDITION_LABEL: read-out: IC50 (Testo.)
pIC50: −log10 of the molar value.
VALUE_KIND: pIC50

In [3]: df
Out[3]:
                                    compound  value_kind  modifier  data_value
 0  COc1cncc(NS(=O)(=O)c2ccccc2C(=O)NCc2cccc(Cl)c2C)c1       pIC50         =        8.22
 1  Cc1cncc(NS(=O)(=O)c2ccccc2C(=O)N2CC(C)CC(C)C2)c1 (stereo not drawn)       pIC50         =        7.89
 2  CCOc1cncc(NS(=O)(=O)c2ccccc2C(=O)N2CCCC(C)(C)C2)c1       pIC50         =        6.87
 3  Cc1cncc(NS(=O)(=O)c2ccccc2C(=O)NCCc2ccccc2C)c1       pIC50         =        7.96
 4  CCOc1cncc(NS(=O)(=O)c2ccccc2C(=O)NC2CCCC2)c1       pIC50         =        7.00
 5  CCC(CC)NC(=O)c1ccccc1S(=O)(=O)Nc1cncc(OC)c1       pIC50         =        7.57
 6  COc1cncc(NS(=O)(=O)c2ccccc2C(=O)N(C)Cc2cccc(F)c2)c1       pIC50         =        7.96
 7  COc1ccc(CNC(=O)c2ccccc2S(=O)(=O)Nc2cncc(OC)c2)cc1       pIC50         =        7.31
 8  O=C(NCCc1ccccc1)c1ccccc1S(=O)(=O)Nc1cccnc1       pIC50         =        6.72
 9  CCOc1ccncc1NS(=O)(=O)c1ccccc1C(=O)NC(C)(C)C       pIC50         =        7.35
10  COc1ccncc1NS(=O)(=O)c1ccccc1C(=O)NCCc1ccccc1C       pIC50         =        8.15
11  CCOc1cncc(NS(=O)(=O)c2ccccc2C(=O)NC2CCCCC2)c1       pIC50         =        6.96
12  CCC(C)(C)NC(=O)c1ccccc1S(=O)(=O)Nc1cccnc1       pIC50         =        7.08
13  O=C(c1ccccc1S(=O)(=O)Nc1cccnc1)N1CCC(O)CC1       pIC50         <        6.12
14  CCOc1ccncc1NS(=O)(=O)c1ccccc1C(=O)NCCOc1ccccc1       pIC50         =        7.49
15  CC1(C)CCCN(C(=O)c2ccccc2S(=O)(=O)Nc2cccnc2)C1       pIC50         =        6.76
16  COc1cncc(NS(=O)(=O)c2ccccc2C(=O)NCCCc2ccccc2OC)c1       pIC50         <        6.12
17  Cc1ccncc1NS(=O)(=O)c1ccccc1C(=O)N(C)Cc1ccc(F)c(F)c1       pIC50         =        7.47
18  COc1cncc(NS(=O)(=O)c2ccccc2C(=O)NCc2ccc(Cl)c(Cl)c2)c1       pIC50         =        7.77
19   CCCCNC(=O)c1ccccc1S(=O)(=O)N(C)c1cccnc1       pIC50         =        6.96
20  COc1cncc(NS(=O)(=O)c2ccccc2C(=O)NCCC(C)C)c1       pIC50         =        8.15
21  CCOc1ccncc1NS(=O)(=O)c1ccccc1C(=O)NCc1ccc(F)c(F)c1       pIC50         =        8.05
22  COc1cncc(NS(=O)(=O)c2ccccc2C(=O)N(C)Cc2ccc(F)c(F)c2)c1       pIC50         =        7.55
23  Cc1cncc(NS(=O)(=O)c2ccccc2C(=O)N(C)CC2CCCC2)c1       pIC50         =        7.59
24  CN(C)Cc1ccc(CNC(=O)c2ccccc2S(=O)(=O)Nc2cccnc2)cc1       pIC50         =        7.55
25  CCCCCN(C)C(=O)c1ccccc1S(=O)(=O)Nc1cncc(OC)c1       pIC50         =        7.59
26  CN(Cc1ccccc1F)C(=O)c1ccccc1S(=O)(=O)Nc1cccnc1       pIC50         >        8.52
27     COCCNC(=O)c1ccccc1S(=O)(=O)Nc1cnccc1C       pIC50         =        6.45
28  CCN(CCn1cccn1)C(=O)c1ccccc1S(=O)(=O)Nc1cccnc1       pIC50         =        6.47
29  COc1cncc(NS(=O)(=O)c2ccccc2C(=O)NCC2(O)C3CC4CC(C3)CC2C4)c1 (stereo not drawn)       pIC50         =        7.92
30  O=C(c1ccccc1S(=O)(=O)Nc1cccnc1)N1CCN(c2ccc(F)cc2)CC1       pIC50         =        7.62
31  CN1CCN(C(=O)c2ccccc2S(=O)(=O)Nc2cccnc2)CC1       pIC50         <        6.12
32  CCOc1cncc(NS(=O)(=O)c2ccccc2C(=O)NCCC(C)C)c1       pIC50         =        7.05
33  CN(c1cccnc1)S(=O)(=O)c1ccccc1C(=O)NCC(C)(C)C       pIC50         =        6.59
34  COc1cncc(NS(=O)(=O)c2ccc(F)cc2C(=O)N(C)C(C)C)c1       pIC50         <        6.12
35  COc1cncc(NS(=O)(=O)c2ccccc2C(=O)N[C@H]2C[C@@H]2c2ccccc2)c1       pIC50         =        7.49
